# test target: T1, ST2 on the effector cells (KU812, KU812/NF-κB-1#, HUVEC, HMC-1) (human, UniProt Q01638 19-556)
# T1 sequence (looked up): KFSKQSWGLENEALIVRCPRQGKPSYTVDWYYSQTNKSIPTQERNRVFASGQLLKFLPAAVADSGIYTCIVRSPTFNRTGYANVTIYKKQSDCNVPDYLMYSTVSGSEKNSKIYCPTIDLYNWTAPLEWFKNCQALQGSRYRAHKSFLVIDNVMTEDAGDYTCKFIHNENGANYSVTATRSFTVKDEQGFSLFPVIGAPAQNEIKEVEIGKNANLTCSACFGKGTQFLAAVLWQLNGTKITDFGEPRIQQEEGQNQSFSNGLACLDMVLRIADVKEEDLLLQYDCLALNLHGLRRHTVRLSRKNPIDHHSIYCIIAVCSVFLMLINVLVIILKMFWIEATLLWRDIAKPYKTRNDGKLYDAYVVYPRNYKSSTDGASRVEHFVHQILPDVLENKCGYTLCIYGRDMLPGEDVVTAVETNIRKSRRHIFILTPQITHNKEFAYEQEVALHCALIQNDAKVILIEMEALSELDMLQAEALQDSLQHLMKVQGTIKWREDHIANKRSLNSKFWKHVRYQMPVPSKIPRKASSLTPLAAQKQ
# assay summary: cell-based or functional assay
readout: IC50, inhibition of KU812-IL5 production promoted by IL-33 (human IL33-his) (µg/mL)
# output: bare number, implied unit µg/mL

Reported IC50, inhibition of KU812-IL5 production promoted by IL-33 (human IL33-his) ( 5888-379-H2L1 (antibody, human IgG4 S228P, kappa, V domains shown, Humanized antibody) VH: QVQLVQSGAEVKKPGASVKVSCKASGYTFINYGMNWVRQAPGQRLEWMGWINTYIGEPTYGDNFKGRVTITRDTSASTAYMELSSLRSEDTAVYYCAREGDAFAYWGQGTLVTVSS VL: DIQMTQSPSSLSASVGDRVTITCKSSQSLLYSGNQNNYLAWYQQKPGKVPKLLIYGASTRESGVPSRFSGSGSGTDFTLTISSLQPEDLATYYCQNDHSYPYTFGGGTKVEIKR ) = 0.0839

---
Reported IC50, inhibition of KU812-IL5 production promoted by IL-33 (human IL33-his) ( 5886-156-H1L1 (antibody, human IgG4 S228P, kappa, V domains shown, Humanized antibody) VH: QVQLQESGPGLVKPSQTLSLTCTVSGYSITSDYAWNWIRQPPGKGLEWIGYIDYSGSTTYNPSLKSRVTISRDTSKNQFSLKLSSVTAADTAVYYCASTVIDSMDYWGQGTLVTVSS VL: DIVLTQSPASLAVSPGQRATITCRASKSVSTSGHSYMHWYQQKPGQPPKLLIYLASNLESGVPARFSGSGSGTDFTLTINPVEANDAANYYCQHSREFPFTFGQGTKVEIKR ) = 0.0289

Reported IC50, inhibition of KU812-IL5 production promoted by IL-33 (human IL33-his) ( 5888-379-H2L2 (antibody, human IgG4 S228P, kappa, V domains shown, Humanized antibody) VH: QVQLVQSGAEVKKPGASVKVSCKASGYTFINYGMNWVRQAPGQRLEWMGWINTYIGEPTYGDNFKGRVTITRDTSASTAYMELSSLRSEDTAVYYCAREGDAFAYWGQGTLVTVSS VL: DIVMTQSPDSLAVSLGERATINCKSSQSLLYSGNQNNYLAWYQQKPGQPPKLLIYGASTRESGVPDRFSGSGSGTDFTLTISSLQAEDVAVYYCQNDHSYPYTFGGGTKVEIKR ) = 0.0948

Reported IC50, inhibition of KU812-IL5 production promoted by IL-33 (human IL33-his) ( 5888-379-H1L0 (antibody, human IgG4 S228P, kappa, V domains shown, Humanized antibody) VH: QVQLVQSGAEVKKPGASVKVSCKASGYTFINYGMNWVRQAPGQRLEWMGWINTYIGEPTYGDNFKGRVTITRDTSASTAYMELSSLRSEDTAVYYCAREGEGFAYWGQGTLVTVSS VL: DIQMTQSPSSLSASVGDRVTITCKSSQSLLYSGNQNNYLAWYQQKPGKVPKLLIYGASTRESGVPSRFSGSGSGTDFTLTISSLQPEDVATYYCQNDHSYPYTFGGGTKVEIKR ) = 0.0874

Reported IC50, inhibition of KU812-IL5 production promoted by IL-33 (human IL33-his) ( 5888-153-H3L1 (antibody, human IgG4 S228P, kappa, V domains shown, Humanized antibody) VH: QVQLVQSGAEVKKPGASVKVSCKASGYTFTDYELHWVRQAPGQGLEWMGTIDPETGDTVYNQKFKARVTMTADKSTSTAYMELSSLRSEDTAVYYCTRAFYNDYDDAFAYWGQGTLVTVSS VL: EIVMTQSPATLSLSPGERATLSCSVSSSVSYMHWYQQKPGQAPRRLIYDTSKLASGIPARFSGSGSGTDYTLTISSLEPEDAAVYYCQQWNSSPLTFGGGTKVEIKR ) = 0.00815
